test target: β-TrCP1/Skp1 (Homo sapiens)
Sequence (Q9Y297 whole entry): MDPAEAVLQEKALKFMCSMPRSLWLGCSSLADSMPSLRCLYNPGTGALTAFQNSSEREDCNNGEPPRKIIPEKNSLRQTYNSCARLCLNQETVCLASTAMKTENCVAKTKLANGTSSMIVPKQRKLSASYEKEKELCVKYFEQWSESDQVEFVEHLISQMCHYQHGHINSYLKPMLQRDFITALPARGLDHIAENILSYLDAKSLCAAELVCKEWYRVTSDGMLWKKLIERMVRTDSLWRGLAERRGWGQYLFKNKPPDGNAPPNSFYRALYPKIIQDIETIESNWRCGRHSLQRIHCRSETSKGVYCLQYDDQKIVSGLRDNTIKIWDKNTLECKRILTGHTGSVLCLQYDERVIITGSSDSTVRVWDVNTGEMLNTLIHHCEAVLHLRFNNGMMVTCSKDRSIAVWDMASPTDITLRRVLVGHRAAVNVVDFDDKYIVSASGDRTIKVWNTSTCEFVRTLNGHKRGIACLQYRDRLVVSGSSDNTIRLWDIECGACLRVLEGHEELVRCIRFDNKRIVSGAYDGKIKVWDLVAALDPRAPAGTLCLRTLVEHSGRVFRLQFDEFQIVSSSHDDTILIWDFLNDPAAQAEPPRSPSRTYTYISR
Sequence (P63208 2-163 partner limits assumed): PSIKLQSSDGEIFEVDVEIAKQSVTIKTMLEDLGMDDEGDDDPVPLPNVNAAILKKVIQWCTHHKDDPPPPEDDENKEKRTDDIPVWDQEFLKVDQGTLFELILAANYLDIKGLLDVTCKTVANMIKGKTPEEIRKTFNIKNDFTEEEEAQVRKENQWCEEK
method summary: βTrCP ubiquitination assay (Ub assay)
Format: biochemical
reported conditions: 10 μM compound
Experimental: βTrCP Ubiquitination Assay and Selectivity Assays 0.5 μM Peptide substrate (biotin) Master mixes were prepared in a 50 mM Herpes buffer at pH 7.5, in 75 mM NaCl and 1 mM DTT without Mg or ATP and peptides were added to a final concentration of 100 μM. Reactions were incubated at room temperature for 30 minutes and then Mg/ATP was added to the mix. Reactions were further incubated for an additional 60 minutes and then stopped by adding SDS gel loading buffer and boiled for 5 minutes. […]
Starred links: 1 amine or outer side, 2 acyl side, 3 side chain; linkers in the order of their positions; H or OH if unused. Non-standard residues stand in square brackets, D forms with d. Residues, ends and D or L forms follow the SMILES beside them. *: point of attachment. Phe(4-NO2) = N[C@@H](Cc1ccc([N+](=O)[O-])cc1)C(=O)O; Phe(3-F) = N[C@@H](Cc1cccc(F)c1)C(=O)O; 1Nal = N[C@@H](Cc1cccc2ccccc12)C(=O)O; Suc = O=C(CCC(=O)[*:2])[*:1]; Tos = Cc1ccc(S(=O)(=O)*)cc1; Propionyl = CCC(=O)*; Moc = COC(=O)*
observation type: Ub Assay 10 μM

Observe how each entry below is paired with its result.
COC(=O)N[C@H](CC(=O)O)C(=O)N[C@@H](CCC(=O)O)C(=O)NCC(=O)N[C@@H](Cc1cccc(F)c1)C(=O)N[C@@H](Cc1c[nH]c2ccccc12)C(=O)N[C@@H](CCC(=O)O)C(N)=O [UBP020, MeO(CO)-dEGF(3F)WE-NH2] (Moc-[dD]EG[Phe(3-F)]WE-NH2)
inhibits/
NC(=O)CC[C@H](NC(=O)CCC(=O)O)C(=O)NCC(=O)N[C@@H](Cc1cccc(F)c1)C(=O)N[C@@H](Cc1ccc([N+](=O)[O-])cc1)C(=O)N[C@@H](CCC(=O)O)C(N)=O
no effect/
CC(=O)N[C@H](CC(=O)O)C(=O)N[C@@H](CCC(=O)O)C(=O)NCC(=O)N[C@@H](Cc1cccc(F)c1)C(=O)N[C@@H](Cc1c[nH]c2ccccc12)C(=O)N[C@@H](CCC(=O)O)C(N)=O [UBP017, Ac-dEGF(3F)WE-NH2] (Ac-[dD]EG[Phe(3-F)]WE-NH2)
reduces/
Cc1ccc(S(=O)(=O)N[C@H](CC(=O)O)C(=O)N[C@@H](CC(=O)O)C(=O)NCC(=O)N[C@@H](Cc2cccc(F)c2)C(=O)N[C@@H](Cc2c[nH]c3ccccc23)C(=O)N[C@@H](CC(=O)O)C(N)=O)cc1 [UBP028, Ts-dDGF(3F)WD-NH2] (Tos-[dD]DG[Phe(3-F)]WD-NH2)
inhibits/

[Q] Output measured Ub Assay 10 μM for this item: CC(=O)N[C@H](CC(=O)O)C(=O)N[C@@H](CCC(=O)O)C(=O)NCC(=O)N[C@@H](Cc1cccc(F)c1)C(=O)N[C@@H](Cc1cccc2ccccc12)C(=O)N[C@@H](CCC(=O)O)C(N)=O [UBP016, Ac-dEGF(3F)1NalE-NH2] (Ac-[dD]EG[Phe(3-F)][1Nal]E-NH2)
[A] reduces/

[Q] Output measured Ub Assay 10 μM for this item: CCC(=O)N[C@H](CC(=O)O)C(=O)N[C@@H](CCC(=O)O)C(=O)NCC(=O)N[C@@H](Cc1cccc(F)c1)C(=O)N[C@@H](Cc1c[nH]c2ccccc12)C(=O)N[C@@H](CCC(=O)O)C(N)=O [UBP019, Et(CO)-dEGF(3F)WE-NH2] (Propionyl-[dD]EG[Phe(3-F)]WE-NH2)
[A] reduces/

[Q] Output measured Ub Assay 10 μM for this item: NC(=O)[C@H](CCC(=O)O)NC(=O)[C@H](Cc1ccc([N+](=O)[O-])cc1)NC(=O)[C@H](Cc1ccc(O)cc1)NC(=O)CNC(=O)[C@H](CCC(=O)O)NC(=O)CCC(=O)O [UBP013, Suc-EGYF(4NO2)E-NH2] (Suc-EGY[Phe(4-NO2)]E-NH2)
[A] no effect/

* * *

test target: FBW7/Skp1 (Homo sapiens, UniProt Q969H0)
Sequence (Q969H0 whole entry, species assumed, one chain of several): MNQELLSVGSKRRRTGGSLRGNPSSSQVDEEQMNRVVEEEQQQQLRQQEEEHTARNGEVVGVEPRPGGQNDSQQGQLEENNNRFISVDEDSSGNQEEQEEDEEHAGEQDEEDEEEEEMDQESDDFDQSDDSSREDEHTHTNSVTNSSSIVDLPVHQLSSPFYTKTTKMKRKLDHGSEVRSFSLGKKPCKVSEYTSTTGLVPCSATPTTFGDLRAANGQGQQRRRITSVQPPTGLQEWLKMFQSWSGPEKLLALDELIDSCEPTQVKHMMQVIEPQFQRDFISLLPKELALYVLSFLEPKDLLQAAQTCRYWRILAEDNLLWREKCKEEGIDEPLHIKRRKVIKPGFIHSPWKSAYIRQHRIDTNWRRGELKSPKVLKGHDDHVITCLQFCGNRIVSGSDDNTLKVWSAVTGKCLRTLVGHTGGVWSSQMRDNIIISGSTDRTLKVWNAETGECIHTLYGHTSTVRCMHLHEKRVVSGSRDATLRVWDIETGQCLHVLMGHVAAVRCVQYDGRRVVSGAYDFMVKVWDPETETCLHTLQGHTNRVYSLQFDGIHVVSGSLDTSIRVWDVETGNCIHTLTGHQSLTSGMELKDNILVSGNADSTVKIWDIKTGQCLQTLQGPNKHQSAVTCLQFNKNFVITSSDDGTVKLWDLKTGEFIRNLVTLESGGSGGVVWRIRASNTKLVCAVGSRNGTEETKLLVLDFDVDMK
Sequence (Q13616 whole entry partner, species assumed, one chain of several): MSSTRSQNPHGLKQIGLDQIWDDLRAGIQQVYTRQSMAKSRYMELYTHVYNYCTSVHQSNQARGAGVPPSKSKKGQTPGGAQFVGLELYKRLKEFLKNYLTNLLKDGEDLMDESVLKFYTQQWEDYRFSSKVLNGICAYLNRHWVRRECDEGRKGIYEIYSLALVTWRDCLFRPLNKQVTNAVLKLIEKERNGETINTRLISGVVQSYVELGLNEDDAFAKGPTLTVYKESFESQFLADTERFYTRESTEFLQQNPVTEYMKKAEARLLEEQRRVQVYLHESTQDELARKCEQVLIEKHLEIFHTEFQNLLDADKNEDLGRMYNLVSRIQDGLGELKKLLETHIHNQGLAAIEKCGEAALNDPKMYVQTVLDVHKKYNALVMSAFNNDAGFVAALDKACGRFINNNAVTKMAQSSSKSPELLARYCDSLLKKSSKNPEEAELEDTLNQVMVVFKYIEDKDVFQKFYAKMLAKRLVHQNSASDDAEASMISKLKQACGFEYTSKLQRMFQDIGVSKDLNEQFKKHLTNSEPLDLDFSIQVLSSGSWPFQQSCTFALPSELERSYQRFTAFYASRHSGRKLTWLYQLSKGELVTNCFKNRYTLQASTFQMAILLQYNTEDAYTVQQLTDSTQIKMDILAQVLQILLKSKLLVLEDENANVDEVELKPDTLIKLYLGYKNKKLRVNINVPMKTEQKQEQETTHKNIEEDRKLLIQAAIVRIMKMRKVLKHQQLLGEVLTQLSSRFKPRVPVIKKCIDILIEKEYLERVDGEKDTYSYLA
Sequence (P62877 whole entry partner, species assumed, one chain of several): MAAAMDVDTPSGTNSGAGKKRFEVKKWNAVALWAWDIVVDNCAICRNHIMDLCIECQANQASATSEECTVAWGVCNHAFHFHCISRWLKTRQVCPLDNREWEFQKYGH
method summary: Selectivity assay vs other E3s: Fbw7
Type: biochemical
reported conditions: 100 μM, value in brackets; read-out: % Inhibition Fbw7 @ (100 μM)
Non-standard residues stand in square brackets, D forms with d. Residues, ends and D or L forms follow the SMILES beside them. *: point of attachment. Phe(3-Cl) = N[C@@H](Cc1cccc(Cl)c1)C(=O)O; Phe(3-F) = N[C@@H](Cc1cccc(F)c1)C(=O)O; NMeE = CN[C@@H](CCC(=O)O)C(=O)O; pS = N[C@@H](COP(=O)(O)O)C(=O)O; Tos = Cc1ccc(S(=O)(=O)*)cc1; Propionyl = CCC(=O)*
observation type: inhibition at 100 µM (%)
Give the value in % but do not write % after it.

Observe how each entry below is paired with its result.
CC[C@H](C)[C@H](NC(=O)CNC(=O)[C@H](COP(=O)(O)O)NC(=O)[C@@H](N)CC(=O)O)C(=O)N[C@@H](Cc1ccccc1)C(=O)N[C@@H](CCC(=O)O)C(N)=O [UBP001, DpSGIFE-NH2] (H-D[pS]GIFE-NH2)
0
Cc1ccc(S(=O)(=O)N[C@H](CC(=O)O)C(=O)N[C@@H](CCC(=O)O)C(=O)NCC(=O)N[C@@H](Cc2cccc(Cl)c2)C(=O)N[C@@H](Cc2c[nH]c3ccccc23)C(=O)N(C)[C@@H](CCC(=O)O)C(N)=O)cc1 [UBP033, Ts-dEGF(3Cl)WE(Me)-NH2] (Tos-[dD]EG[Phe(3-Cl)]W[NMeE]-NH2)
11
Cc1ccc(S(=O)(=O)N[C@H](CC(=O)O)C(=O)N[C@@H](CCC(=O)O)C(=O)NCC(=O)N[C@@H](Cc2cccc(F)c2)C(=O)N[C@@H](Cc2c[nH]c3ccccc23)C(=O)N(C)[C@@H](CCC(=O)O)C(N)=O)cc1 [UBP032, Ts-dEGF(3F)WE(Me)-NH2] (Tos-[dD]EG[Phe(3-F)]W[NMeE]-NH2)
10

From here, focus on the item given below.
[Q] Output measured inhibition at 100 µM for this item: CCC(=O)N[C@H](CC(=O)O)C(=O)N[C@@H](CCC(=O)O)C(=O)NCC(=O)N[C@@H](Cc1cccc(F)c1)C(=O)N[C@@H](Cc1c[nH]c2ccccc12)C(=O)N[C@@H](CCC(=O)O)C(N)=O [UBP019, Et(CO)-dEGF(3F)WE-NH2] (Propionyl-[dD]EG[Phe(3-F)]WE-NH2)
[A] 10

* * *

IC50 reference
test target: βTrCP (Homo sapiens)
Sequence (Q9Y297 whole entry): as the sequence (Q9Y297 whole entry) above
Sequence (P63208 whole entry partner): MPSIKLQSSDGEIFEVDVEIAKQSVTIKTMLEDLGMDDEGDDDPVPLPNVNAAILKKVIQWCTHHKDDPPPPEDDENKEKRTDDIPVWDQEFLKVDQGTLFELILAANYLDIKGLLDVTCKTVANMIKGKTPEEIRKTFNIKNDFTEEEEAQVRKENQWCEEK
method summary: Fluorescence polarisation (FP) binding assay with fluorescein-tagged IκB peptide
reported conditions: Tables 1, 3, 7, 8; 10 nM fluorescein-tagged IκB peptide; read-out: FP Assay IC50/μM
Non-standard residues stand in square brackets, D forms with d. Residues, ends and D or L forms follow the SMILES beside them. pS = N[C@@H](COP(=O)(O)O)C(=O)O
Give the value in µM but do not write µM after it.

C[C@H](NC(=O)[C@H](CCC(=O)O)NC(=O)CCC(=O)O)C(=O)N[C@@H](Cc1cccc(F)c1)C(=O)N[C@@H](Cc1ccc([N+](=O)[O-])cc1)C(=O)N[C@@H](CCC(=O)O)C(N)=O [Suc-EA-F(3F)-F(4NO2)-E-NH2]
27.5

[Q] Output measured IC50 for this item: CC[C@H](C)[C@H](NC(=O)CNC(=O)[C@H](COP(=O)(O)O)NC(=O)[C@@H](N)CCC(=O)O)C(=O)N[C@@H](Cc1ccccc1)C(=O)N[C@@H](CCC(=O)O)C(N)=O [E-pS-GIFE-NH2] (H-E[pS]GIFE-NH2)
[A] 34.5

* * *

test target: βTrCP/Skp1 (Homo sapiens, UniProt Q9Y297)
method summary: Surface plasmon resonance (SPR), Biacore T200
Type: binding
reported conditions: apparent KD averaged over both surfaces
Starred links: 1 amine or outer side, 2 acyl side, 3 side chain; linkers in the order of their positions; H or OH if unused. Non-standard residues stand in square brackets, D forms with d. Residues, ends and D or L forms follow the SMILES beside them. Phe(4-NO2) = N[C@@H](Cc1ccc([N+](=O)[O-])cc1)C(=O)O; Phe(3-F) = N[C@@H](Cc1cccc(F)c1)C(=O)O; Phe(4-F) = N[C@@H](Cc1ccc(F)cc1)C(=O)O; 1Nal = N[C@@H](Cc1cccc2ccccc12)C(=O)O; Phe(2-F) = N[C@@H](Cc1ccccc1F)C(=O)O; Suc = O=C(CCC(=O)[*:2])[*:1]
observation type: Kd (µM)
Give the value in µM but do not write µM after it.

Observe how each entry below is paired with its result.
NC(=O)[C@H](CCC(=O)O)NC(=O)[C@H](Cc1ccc([N+](=O)[O-])cc1)NC(=O)[C@H](Cc1ccc(F)cc1)NC(=O)CNC(=O)[C@H](CCC(=O)O)NC(=O)CCC(=O)O [UBP005, Suc-EGF(4F)F(4NO2)E-NH2] (Suc-EG[Phe(4-F)][Phe(4-NO2)]E-NH2)
0.507
COc1ccc(C[C@H](NC(=O)[C@H](Cc2ccccc2F)NC(=O)CNC(=O)[C@H](CCC(=O)O)NC(=O)CCC(=O)O)C(=O)N[C@@H](CCC(=O)O)C(N)=O)cc1 [UBP006, Suc-EGF(2F)Y(Me)E-NH2] (Suc-EG[Phe(2-F)]Y(Me)E-NH2)
4.4
NC(=O)[C@H](CCC(=O)O)NC(=O)[C@H](Cc1cccc2ccccc12)NC(=O)[C@H](Cc1cccc(F)c1)NC(=O)CNC(=O)[C@H](CCC(=O)O)NC(=O)CCC(=O)O [UBP010, Suc-EGF(3F)1NalE-NH2] (Suc-EG[Phe(3-F)][1Nal]E-NH2)
0.32

From here, focus on the item given below.
[Q] Lab note: βTrCP/Skp1 (Homo sapiens, UniProt Q9Y297) assay, enter Kd for NC(=O)[C@H](CCC(=O)O)NC(=O)[C@H](Cc1ccc([N+](=O)[O-])cc1)NC(=O)[C@H](Cc1ccc(O)cc1)NC(=O)CNC(=O)[C@H](CCC(=O)O)NC(=O)CCC(=O)O [UBP013, Suc-EGYF(4NO2)E-NH2] (Suc-EGY[Phe(4-NO2)]E-NH2) here
[A] 17.7
